Values from the supplement of paper PMC7125110

For each of the variants below, state its self-cleavage kobs at 160 uM GlcN6P.
B1: glmS ribozyme (parent)
chain: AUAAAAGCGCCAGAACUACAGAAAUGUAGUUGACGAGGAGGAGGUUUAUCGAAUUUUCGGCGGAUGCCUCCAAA

variants of: B1; experiment: self-cleavage kobs at 160 uM GlcN6P; higher = faster cleavage; RNA array; settings: with glucosamine-6-phosphate
This sample holds only a part of the variants without activity.

Examples with answers:
[[record]]
mutation_list = "A48G C67G"
reported_value = "< 1e-05 s⁻¹"

[[record]]
mutation_list = "A39C A48G"
reported_value = "< 1e-05 s⁻¹"

[[record]]
mutation_list = "G35C C50U A53C"
reported_value = "< 1e-05 s⁻¹"

[[record]]
mutation_list = "G35A C58U"
reported_value = "< 1e-05 s⁻¹"

[[record]]
mutation_list = "A33U U54G"
reported_value = "< 1e-05 s⁻¹"


Need self-cleavage kobs at 160 uM GlcN6P for each of these variants.
1. G43U G44U
2. G9C G29U U69A
3. U45G C58U

result:
< 1e-05 s⁻¹
< 1e-05 s⁻¹
< 1e-05 s⁻¹
